# target-or-test-system: hKOP receptor (Homo sapiens, UniProt P41145)
# Sequence (P41145 whole entry): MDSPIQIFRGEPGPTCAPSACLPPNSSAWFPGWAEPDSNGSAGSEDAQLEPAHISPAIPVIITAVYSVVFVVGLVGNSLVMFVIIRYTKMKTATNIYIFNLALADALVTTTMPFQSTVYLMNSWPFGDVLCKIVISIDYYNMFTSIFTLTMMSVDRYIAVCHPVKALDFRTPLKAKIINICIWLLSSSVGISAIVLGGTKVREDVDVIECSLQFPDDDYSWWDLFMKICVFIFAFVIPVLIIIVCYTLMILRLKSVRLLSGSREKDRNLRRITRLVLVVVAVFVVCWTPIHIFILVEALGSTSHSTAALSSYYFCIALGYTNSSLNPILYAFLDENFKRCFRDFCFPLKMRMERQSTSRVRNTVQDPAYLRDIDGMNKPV
# protocol-details: biochemical
# Assay type: biochemical
# setup-conditions: read-out: [35S]GTPγS binding Emax
Binary classification by Emax, with 70% as an inclusive lower bound for true (1); all other cases are false (0).

Quick check: does CC(C)=CCN1CCC2(C)c3cc(O)ccc3CC1C2C (stereo not shown) have Emax greater than or equal to 70%?
false (0)

Determine whether this compound has Emax no lower than 70%: Oc1ccc2c(c1)[C@@]13CCCC[C@@]1(O)[C@@H](C2)N(CC1CCC1)CC3
false (0)

Hello, I need to know if CN1CC[C@]23CCCC[C@H]2[C@H]1Cc1ccc(O)cc13 has measured Emax not below 70%. Thanks!
false (0)

New cases:
Is reported Emax greater than or equal to 70% here: C=CCN1CC[C@]23c4c5ccc(O)c4O[C@H]2[C@@H](O)C=C[C@H]3[C@H]1C5
false (0)

# bool: Emax of CC[C@]12CCN(CC3CC3)[C@H](C(=O)c3ccc(O)cc31)[C@@H]2C >= 70%
true (1)

Test whether the compound CN1c2ccccc2C(c2ccccc2F)=NCC1CNC(=O)c1ccsc1 (stereo not shown) records Emax of 70% or higher.
true (1)

* * *

# target-or-test-system: hKOP receptor (Homo sapiens)
# protocol-details: cell-based
# Assay type: cell-based
# setup-conditions: read-out: Internalization EC50, mean
outcome-measure: pEC50
Remember, pEC50 is on a log scale: it is -log10 of the molar concentration.

The reported value for COC(=O)/C=C/C(=O)N[C@@H]1CC[C@@]2(O)[C@H]3Cc4ccc(O)c5c4[C@@]2(CCN3CC2CC2)[C@H]1O5 in terms of pEC50 is 8.02

* * *

# target-or-test-system: mKOP receptor (Mus musculus, UniProt P33534)
# Sequence (P33534 whole entry): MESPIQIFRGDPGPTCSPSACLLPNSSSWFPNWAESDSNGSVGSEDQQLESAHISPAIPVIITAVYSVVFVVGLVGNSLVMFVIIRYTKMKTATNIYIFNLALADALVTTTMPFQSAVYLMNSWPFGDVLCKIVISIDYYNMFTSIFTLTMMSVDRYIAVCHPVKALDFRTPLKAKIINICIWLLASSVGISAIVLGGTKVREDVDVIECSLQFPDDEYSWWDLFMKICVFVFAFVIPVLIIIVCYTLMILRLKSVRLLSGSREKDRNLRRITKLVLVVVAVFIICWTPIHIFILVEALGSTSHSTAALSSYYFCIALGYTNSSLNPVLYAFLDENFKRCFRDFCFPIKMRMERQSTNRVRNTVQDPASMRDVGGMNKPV
# protocol-details: cell-based
# Type: cell-based
outcome-measure: EC50 (nM)
Report only the number, with the unit nM understood.

// returns EC50 for CN1CC[C@]23CCCC[C@H]2[C@H]1Cc1ccc(O)cc13 [Levorphanol, levorphanol] with mKOP receptor (Mus musculus, UniProt P33534); value = 0.83

* * *

So I've got Bias factor, direction of bias readings for hKOP receptor (Homo sapiens), take a look.
outcome-measure: Bias factor, direction of bias

Recorded Bias factor, direction of bias (compound COC(=O)/C=C/C(=O)N[C@@H]1CC[C@@]2(O)[C@H]3Cc4ccc(O)c5c4[C@@]2(CCN3CC2CC2)[C@H]1O5 ): I ^c, 1.2

Reported Bias factor, direction of bias ( CCC12CCN(CC3(O)CC3)C(Cc3ccc(O)cc31)C2(C)C (stereo not shown) ) = I ^c, 1.2

* * *

Entries with their measured Bias factor (larger RAi divided by smaller), system hKOP receptor (Homo sapiens, UniProt P41145):
outcome-measure: Bias factor (larger RAi divided by smaller)

Record CCC12CCN(CC3(O)CC3)C(Cc3ccc(O)cc31)C2(C)C (stereo not shown) ; system hKOP receptor (Homo sapiens, UniProt P41145); Bias factor (larger RAi divided by smaller) = I ^c, 1.2

Recorded Bias factor (larger RAi divided by smaller) for COC(=O)/C=C/C(=O)N[C@@H]1CC[C@@]2(O)[C@H]3Cc4ccc(O)c5c4[C@@]2(CCN3CC2CC2)[C@H]1O5 on hKOP receptor (Homo sapiens, UniProt P41145) was I ^c, 1.2
